- target-or-system: melanocortin-1 receptor (human, UniProt Q01726 1-317)
- Sequence (Q01726 whole entry): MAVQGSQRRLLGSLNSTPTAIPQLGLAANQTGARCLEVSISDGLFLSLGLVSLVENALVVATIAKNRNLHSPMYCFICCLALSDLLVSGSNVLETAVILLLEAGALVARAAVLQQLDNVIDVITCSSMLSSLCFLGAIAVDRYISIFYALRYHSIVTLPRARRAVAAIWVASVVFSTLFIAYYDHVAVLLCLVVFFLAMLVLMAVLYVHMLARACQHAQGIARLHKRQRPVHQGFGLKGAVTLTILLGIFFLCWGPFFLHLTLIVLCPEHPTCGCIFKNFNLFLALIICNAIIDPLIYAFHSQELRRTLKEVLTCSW
- assay-notes: cell-based or functional assay
Bridge positions count the residues as written; N and C are the ends. Square brackets hold non-standard residues; d marks the D form.
recorded-endpoint: Ratios of EC50 values MC 1/4 (MC1R against MC4R) (ratio)
Respond numerically; units are ratio and should not be typed.

stdin: Give the measured Ratios of EC50 values MC 1/4 (MC1R against MC4R) for Ac-RC[dV]H[dF]RWC-NH2 (disulfide 2-8) [Ac-Arg-cyclo[Cys-D-Val-His-D-Phe-Arg-Trp-Cys]-NH2]
stdout: 0.93
